Consider the following IC50 values measured on wildtype Kras (Homo sapiens).
Sequence (P01116 1-188 isoform P01116-2): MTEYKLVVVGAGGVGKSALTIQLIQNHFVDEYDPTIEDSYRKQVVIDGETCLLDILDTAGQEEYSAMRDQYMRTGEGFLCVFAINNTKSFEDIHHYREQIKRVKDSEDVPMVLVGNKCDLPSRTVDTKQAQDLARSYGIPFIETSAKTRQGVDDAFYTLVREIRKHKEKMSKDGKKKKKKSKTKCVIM

As a guide, the following entries are already answered.
- CN1CCC[C@H]1COc1nc(N2C[C@H](N)C[C@@H](O)C2)c2cc(Cl)c(-c3cccc4sc(N)nc34)c(F)c2n1: > 5 µM
- COc1nc2c(N3CC4CCC(C3)N4)nc(OC[C@@]34CCCN3C[C@H](F)C4)nc2cc1-c1ccc(F)c2sc(N)nc12: 0.5 to 5 µM
- COc1nc2c(N3CC4CCC(C3)N4)nc(OCC34CCCN3CCC4)nc2cc1-c1ccc(F)c2sc(N)nc12: 0.5 to 5 µM
- Cc1c(N)sc2c(F)ccc(-c3c(Cl)cc4c(N5C[C@H]6CC[C@@H](C5)N6)nc(OC[C@@]56CCCN5C[C@H](F)C6)nc4c3F)c12: < 0.5 µM
- COc1nc2c(N3C4CCC3CNC4)nc(OC[C@@]34CCCN3C[C@H](F)C4)nc2cc1-c1ccc(F)c2sc(N)nc12: > 5 µM

Please give measured IC50 of the following entry: CN1CCC[C@H]1COc1nc(N2C[C@H](N)C[C@@H](F)C2)c2cc(Cl)c(-c3cccc4sc(N)nc34)c(F)c2n1
> 5 µM

Please give measured IC50 of the following entry: CN1CCC[C@H]1COc1nc(N2C[C@H](N)C[C@H](F)C2)c2cc(Cl)c(-c3cccc4sc(N)nc34)c(F)c2n1
> 5 µM
